The reported numbers originate from PubChem BioAssay (NCI).

Attribute: growth inhibition
# protocol-details: NCI Yeast Anticancer Drug Screen. Data for the sgs1 mgt1 strain (AID 161);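 note: 0% = growth of cultures given vehicle only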
# details: S. cerevisiae sgs1 mgt1 strain, at 50.0 µM (retest, dose inferred, filed as 5.0), stronger effect = higher value
This is part of a sample that, as a whole, favours compounds with a hit. Of some 79,000 tested, about 15% had one in any assay.
assay-metric: growth inhibition (%)

In [3]: df
Out[3]:
                                    molecule  assay_result
 0  Cc1ccc(C)c(NC(=O)CCC(=O)CC(=O)c2ccncc2)c1             4
 1  O=c1cccccc1[O-].O=c1cccccc1[O-].O=c1cccccc1[O-].[Dy+3]            14
 2  CC(C)(C)c1cc(C(P(=O)(c2ccccc2)c2ccccc2)P(=O)(c2ccccc2)c2ccccc2)cc(C(C)(C)C)c1O            97
 3  CC1(C)CC[C@]2(C(=O)O)CC[C@]3(C)C(=CC[C@@H]4[C@@]5(C)C[C@H](O)[C@H](O)[C@@](C)(C(=O)O)[C@@H]5CC[C@]43C)[C@@H]2C1            99
 4       ClCc1ccc(OCc2ccccc2)c(OCc2ccccc2)c1            87
 5                    Oc1ccc2ccccc2c1.[Cu+2]             6
 6   Cn1c(=S)c2[nH]c(SCCN3CCOCC3)nc2n(C)c1=O            72
 7  COc1ccc(/C=N/N=c2\[nH][nH]/c(=N\N=C\c3ccc(OC)c4ccccc34)c3ccccc23)c2ccccc12            76
 8  N#CC1C(=O)NC(=O)C(C#N)C1c1ccc(Cl)c(Cl)c1 (centres undefined)            26
 9       Cc1cc(C2c3ccccc3-c3ccccc32)cc(C)c1O             8
10  CCCCN(CCCC)c1ccc2c(c1)C(O)c1ccccc1-2 (centres undefined)            78
11                  CCCn1cc2c(SC)nc(SC)nc2n1            10
12  C=C1CCC[C@@]2(C)CC[C@@H](/C(C)=C\C=C\C(C)(C)O)C[C@H]12            56
13     O=C1C=CC(=C(c2ccccc2)c2ccc(O)cc2)C=C1           -27
14  Cc1sc(N=Nc2c(O)[nH]c3ccccc23)nc1-c1ccccc1            30
15         O=P(O)(O)Oc1c(O)c2ccccc2c2ccccc12            85
16  Clc1ccc(C(CCOc2ccccc2Br)Cn2ccnc2)c(Cl)c1 (centres undefined)            99
17  Cc1nc(-c2ccc(N=Cc3ccc(N(CCOS(C)(=O)=O)CCOS(C)(=O)=O)cc3Cl)cc2)c(C)s1            17
18  O=C(O)c1c(Cl)c(Cl)c(Cl)c(Cl)c1-c1c2ccc(=O)cc-2oc2cc(O)ccc12            99
19  CC[N](CC)[Ge]([CH2]C)[CH2]C.CC[N](CC)[Ge]([CH2]C)[CH2]C            99
20    Oc1cc(CNCc2ccccc2)c(O)c(CNCc2ccccc2)c1            11
21              N=c1c2ccccc2cc2c3ccccc3ccn12            95
22    c1ccc(Cn2nnc(-c3ccccc3)c2-c2ccccc2)cc1            96
23   N=C(N)c1ccc(SCCCCCSc2ccc(C(=N)N)cc2)cc1            86
24  c1ccc([P+](Cc2ccc(C[P+](c3ccccc3)(c3ccccc3)c3ccccc3)s2)(c2ccccc2)c2ccccc2)cc1            98
25              Cc1cc(OC(=O)CCl)ccc1C(C)(C)C             1
26  Cc1ccccc1NC(=O)Cc1csc(N=Nc2c(O)[nH]c3ccccc23)n1            -2
27  CN(C)C1C[C@@H](O[Si](C)(C)C(C)(C)C)C=C1S(=O)(=O)c1ccccc1 (some centres undefined)           100
28           O=C(Oc1ccc(O)c2ccccc12)c1ccccc1           -16
29        COc1ccc2ccccc2c1-c1c(O)ccc2ccccc12            63
30      NC(=S)C(=S)N/C=C/c1nc2ccccc2[nH]c1=O            97
31  C/C(O)=C(/C=N/C(=S)Nc1ccc(S(N)(=O)=O)cc1)C(=O)Nc1ccccc1C            -2
32            CCOC(=O)c1cc(Cl)nc2ccc(OC)cc12           -31
33  CCCC(C)C/C(C)=C\C(C)(C)C1CC(=O)N(CC)C1=O (centres undefined)            54
34  C1=C(CC2=C[P+](c3ccccc3)(c3ccccc3)C=C(c3ccccc3)O2)OC(c2ccccc2)=C[P+]1(c1ccccc1)c1ccccc1            98
35  CCCOC(=O)C1CCCCC1C(=O)OCCC (centres undefined)            16
36              C/C(=N/NC(=S)N(C)C)c1ccccc1O            16
37      Fc1cccc(CSc2n[nH]c(=S)c3nc[nH]c23)c1           -10
38        CCN(CC)C(=O)N1CCN(c2cccc(Cl)c2)CC1            85
